Listing of recorded IC50 by entry.
# tested system: CYP2D6 (Homo sapiens)
# Sequence (P10635 whole entry): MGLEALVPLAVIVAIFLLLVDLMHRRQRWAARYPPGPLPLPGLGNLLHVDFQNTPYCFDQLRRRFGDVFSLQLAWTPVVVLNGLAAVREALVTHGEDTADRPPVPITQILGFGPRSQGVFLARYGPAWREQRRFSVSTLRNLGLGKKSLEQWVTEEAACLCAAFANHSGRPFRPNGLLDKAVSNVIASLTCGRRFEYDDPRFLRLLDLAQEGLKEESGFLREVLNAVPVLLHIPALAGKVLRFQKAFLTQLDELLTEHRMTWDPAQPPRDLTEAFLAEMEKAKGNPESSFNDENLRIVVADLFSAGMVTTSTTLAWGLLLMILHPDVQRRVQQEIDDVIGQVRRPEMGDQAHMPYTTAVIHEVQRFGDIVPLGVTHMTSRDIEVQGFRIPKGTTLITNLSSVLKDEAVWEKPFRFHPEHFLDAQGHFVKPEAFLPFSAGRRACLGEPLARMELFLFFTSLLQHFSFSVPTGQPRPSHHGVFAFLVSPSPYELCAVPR
Respond numerically; units are µM and should not be typed.

Please review the entries below; each comes with its answer.
1) CC(NC(C)(C)C)C(=O)c1cccc(Cl)c1 (stereo not drawn) ... 33
2) Clc1ccccc1C(c1ccccc1)(c1ccccc1)n1ccnc1 ... 22.6

Below: the item to evaluate.
[Q] Please report the recorded IC50 for CC(C)N(CCC(C(N)=O)(c1ccccc1)c1ccccn1)C(C)C (stereo not drawn) [disopyramide] .
[A] 220

----------
# tested system: human recombinant monoamine oxidase B (MAO B) (Homo sapiens)
# Sequence (P27338 1-520): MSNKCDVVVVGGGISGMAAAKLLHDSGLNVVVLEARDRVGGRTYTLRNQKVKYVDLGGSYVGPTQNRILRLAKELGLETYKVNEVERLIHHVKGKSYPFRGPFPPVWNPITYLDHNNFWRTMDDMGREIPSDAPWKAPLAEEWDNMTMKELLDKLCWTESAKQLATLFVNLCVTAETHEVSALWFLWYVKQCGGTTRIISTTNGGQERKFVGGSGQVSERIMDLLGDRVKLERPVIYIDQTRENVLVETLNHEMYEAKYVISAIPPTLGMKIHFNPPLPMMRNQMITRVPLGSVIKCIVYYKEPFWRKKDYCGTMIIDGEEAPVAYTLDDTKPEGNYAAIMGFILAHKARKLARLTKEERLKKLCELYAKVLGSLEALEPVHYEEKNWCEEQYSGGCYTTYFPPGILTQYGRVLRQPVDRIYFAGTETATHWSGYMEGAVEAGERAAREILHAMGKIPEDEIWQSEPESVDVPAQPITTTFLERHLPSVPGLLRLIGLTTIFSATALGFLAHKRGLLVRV
# assay overview: biochemical
reported property: IC50 (µM)
Respond numerically; units are µM and should not be typed.

[Q] Please report the recorded IC50 for NCCc1ccccc1 .
[A] 20

----------
# System: panel of recombinant human P450s
# assay overview: Two-step luminescent screen of luciferin derivatives against a panel of recombinant human P450s and HLM
# Type: biochemical
# condition description: 50 μM substrate, panel of FIGS. 17-18
reported property: P450 enzyme activity / selectivity (words)

1. COc1ccc2cc(C3=N[C@@H](C(=O)O)CS3)ccc2c1 [Naphthylluciferin 6-methyl ether] ... substrate for 4A11
2. COc1ccc2nc(C3=NC(C(=O)O)CS3)cnc2c1 (stereo not shown) [quinoxalylluciferin 6-methyl ether] ... substrate for 4A11

----------
# tested system: UniProt:P33261
# Sequence (P33261 whole entry): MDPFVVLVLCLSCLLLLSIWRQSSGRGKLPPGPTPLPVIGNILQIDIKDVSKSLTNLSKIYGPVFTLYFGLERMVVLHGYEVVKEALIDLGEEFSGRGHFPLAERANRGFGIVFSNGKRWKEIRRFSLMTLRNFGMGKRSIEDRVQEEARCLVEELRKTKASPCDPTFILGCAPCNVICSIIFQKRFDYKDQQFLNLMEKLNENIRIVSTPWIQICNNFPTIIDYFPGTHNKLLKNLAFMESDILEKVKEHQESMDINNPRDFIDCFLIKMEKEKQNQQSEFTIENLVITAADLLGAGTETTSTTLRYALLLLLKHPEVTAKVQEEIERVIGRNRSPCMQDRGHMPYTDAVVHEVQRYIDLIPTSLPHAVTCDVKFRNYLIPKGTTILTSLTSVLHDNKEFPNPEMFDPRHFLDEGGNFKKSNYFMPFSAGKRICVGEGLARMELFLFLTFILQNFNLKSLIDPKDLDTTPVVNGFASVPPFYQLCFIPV
reported property: pIC50
The read-out pIC50 is expressed as -log10 of concentration in moles per litre.

[Q] # value lookup — system UniProt:P33261, readout pIC50, item NNC(=O)c1ccncc1
[A] 4.12
